# measured-target: Fes (UniProt P07332)
# Sequence (P07332 whole entry, looked up): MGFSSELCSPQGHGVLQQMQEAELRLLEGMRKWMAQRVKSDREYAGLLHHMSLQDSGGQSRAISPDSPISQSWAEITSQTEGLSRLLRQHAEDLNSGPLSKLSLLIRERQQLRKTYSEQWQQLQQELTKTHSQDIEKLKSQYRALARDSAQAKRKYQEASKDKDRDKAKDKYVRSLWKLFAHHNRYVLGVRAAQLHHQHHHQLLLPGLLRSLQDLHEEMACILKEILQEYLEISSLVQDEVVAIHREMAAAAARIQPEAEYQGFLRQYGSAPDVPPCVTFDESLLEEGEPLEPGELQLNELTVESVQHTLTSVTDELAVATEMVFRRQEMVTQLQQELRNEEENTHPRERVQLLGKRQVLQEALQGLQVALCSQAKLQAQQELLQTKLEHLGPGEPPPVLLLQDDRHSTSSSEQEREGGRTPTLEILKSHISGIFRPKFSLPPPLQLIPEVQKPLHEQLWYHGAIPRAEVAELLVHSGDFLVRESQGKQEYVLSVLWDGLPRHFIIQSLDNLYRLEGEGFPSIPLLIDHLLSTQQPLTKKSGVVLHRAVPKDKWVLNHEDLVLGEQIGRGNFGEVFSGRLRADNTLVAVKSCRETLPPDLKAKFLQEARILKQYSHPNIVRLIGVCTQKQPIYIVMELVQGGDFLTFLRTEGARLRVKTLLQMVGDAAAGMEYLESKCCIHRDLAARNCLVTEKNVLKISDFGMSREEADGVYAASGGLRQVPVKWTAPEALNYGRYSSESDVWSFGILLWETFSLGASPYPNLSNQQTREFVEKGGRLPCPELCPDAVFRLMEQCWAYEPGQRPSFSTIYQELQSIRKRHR
# assay-remarks: phosphorylation enrichment, bacterial display (enrichment ratio); higher = better substrate or ligand; peptides without Tyr show the background;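 also: 11-residue human phosphosite peptides and single-mutation variants displayed on the E. coli surface, counted by deep sequencing, each peptide's frequency after selection divided by its frequency in the unselected input library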;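 also: frequency after pTyr selection over input frequency; kinase dosed for 20-30% of maximal phosphorylation in three min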
Quick rule: phosphorylation enrichment of at least 0.8 means True, below that means False.

sequence-string: KCCCIYEKPRS [PPP1R11_Y64_A69S]
qualitative-label: True
--
sequence-string: LHQSTYQRYDV [SLC7A14_Y693]
qualitative-label: False
--
sequence-string: AFGGGYGGVLT [KRT19_Y65_YF]
qualitative-label: False
--
sequence-string: YRAVKYLQMVG [AVPR2_Y117_C112Y]
qualitative-label: True
--
sequence-string: VIEYSYTSADG [DHCR7_Y382_C380Y]
qualitative-label: True
--
sequence-string: KLSFSYGWALQ [ALDOB_Y302_R304W]
qualitative-label: True
--
sequence-string: IKNSGYISQFL [EIF2AK3_Y585_R588Q_YF]
qualitative-label: False
--
sequence-string: KDGNGYISAAE [CALM1_Y100]
qualitative-label: False
--
sequence-string: LKEIHYPPYTD [ALDH3B2_Y362]
qualitative-label: True
--
sequence-string: SAPPSHEETVA [LITAF_Y23_Y23H]
qualitative-label: False
--
sequence-string: LFQAKYQIRFR [CRLF1_Y272_YF]
qualitative-label: True
--
sequence-string: LLINKYGLSDH [SCP2_Y151_A155D]
qualitative-label: True
--
sequence-string: YSGDYYRIQGR [DDR2_Y741]
qualitative-label: True
--
sequence-string: SDFSRYARTSI [TERT_Y949_S948R_YF]
qualitative-label: False
--
sequence-string: LAIERYVVVSK [RHO_Y136_C140S]
qualitative-label: True
--
sequence-string: KLKPIYFHTQG [AR_Y916_V912L]
qualitative-label: False
--
sequence-string: FLRKEYGGVNV [CBR3_Y81_L84V]
qualitative-label: True

* * *

# measured-target: Fes (UniProt P07332)
# assay-remarks: phosphorylation enrichment, bacterial display (enrichment ratio); higher = better substrate or ligand; peptides without Tyr show the background

sequence-string: RRSQSYNPTSG [PLEKHA2_Y185_I186N]
phosphorylation enrichment: 0.972
--
sequence-string: SSNPEYLSASD [INSR_Y999]
phosphorylation enrichment: 1
--
sequence-string: LPQDGYRIVQH [PTPRT_Y1329_R1324L]
phosphorylation enrichment: 0.809
--
sequence-string: AGNPAYRSFSN [IL4R_Y497]
phosphorylation enrichment: 0.575
--
sequence-string: VRSNHYDPEED [TJP1_Y1346]
phosphorylation enrichment: 1.19
--
sequence-string: NTGDDYDLYGG [PTPN11_Y63_Y62D]
phosphorylation enrichment: 1.17
--
sequence-string: GHLFACDWISI [BEST1_Y227_Y227C_YF]
phosphorylation enrichment: 1.01
--
sequence-string: SDYSSYARTSI [TERT_Y949]
phosphorylation enrichment: 0.558
--
sequence-string: RLTEGYTGPFK [ZNF862_Y181_I178T]
phosphorylation enrichment: 0.611
--
sequence-string: RGKEPYTKKAL [TTC21B_Y160]
phosphorylation enrichment: 1.01
--
sequence-string: VHKEGYNKLNQ [ZNF676_Y98]
phosphorylation enrichment: 0.539
--
sequence-string: LTPVKYLLSAT [GSDMC_Y26]
phosphorylation enrichment: 0.616
--
sequence-string: TLSGIYQYSIA [FOXL2_Y81_I84S]
phosphorylation enrichment: 0.899
--
sequence-string: HGVSSYDTVIS [LDLR_Y465]
phosphorylation enrichment: 1.15
--
sequence-string: QYPDVYAREEV [CRX_Y67]
phosphorylation enrichment: 4.98
--
sequence-string: QPDFLYDHIQP [TRRAP_Y862]
phosphorylation enrichment: 1.74
--
sequence-string: QSMEPYTKQQL [STAT3_Y640_V637M]
phosphorylation enrichment: 1.02
--
sequence-string: CGSLLYGLVHQ [PRKCG_Y122]
phosphorylation enrichment: 1.2
--
sequence-string: RKQQLYIAMEE [CCDC39_Y593_T594I]
phosphorylation enrichment: 1.28
--
sequence-string: PDSVDYPKKGY [CTSK_Y121_R122P]
phosphorylation enrichment: 0.654
--
sequence-string: RPGSGYTNIMR [PKLR_Y564]
phosphorylation enrichment: 0.586
--
sequence-string: GIVEDYRPTFY [ACVRL1_Y421_P424T]
phosphorylation enrichment: 0.866
--
sequence-string: KAPPTYDTVLQ [CYP3A4_Y347]
phosphorylation enrichment: 0.735
--
sequence-string: GEAEQYVGGGG [FAT4_Y4980]
phosphorylation enrichment: 0.87
--
sequence-string: KRLAVYIDEEA [EPM2A_Y304_P301L]
phosphorylation enrichment: 1.14
--
sequence-string: NTFEKYLGEEF [TF_Y669_YF]
phosphorylation enrichment: 1.21
--
sequence-string: NAMRRYIEEFQ [MNS1_Y244]
phosphorylation enrichment: 0.819
--
sequence-string: EKLQKYYRKNP [EHHADH_Y682_Q685K]
phosphorylation enrichment: 0.753
--
sequence-string: PEYVVYKPQME [CCRL2_Y170_F167Y]
phosphorylation enrichment: 1.29
--
sequence-string: EDSEFYRAFEE [CASQ2_Y179_K180R_YF]
phosphorylation enrichment: 1.07
--
sequence-string: NMRSTYAKLAA [SEC22B_Y193_H190R]
phosphorylation enrichment: 0.561
--
sequence-string: RLPNGYGLAYR [DLK1_Y262_S260N]
phosphorylation enrichment: 0.737
--
sequence-string: FTHSDYQFGQR [PKP2_Y166_S169G_YF]
phosphorylation enrichment: 0.687
--
sequence-string: PPLMLYNPTTF [EGFR_Y270_YF]
phosphorylation enrichment: 1.21
--
sequence-string: FARNCYVAGQF [G6PD_Y107_S106C_YF]
phosphorylation enrichment: 0.938
--
sequence-string: TINPIHEHVGF [CHN1_Y143_Y143H_YF]
phosphorylation enrichment: 0.619
--
sequence-string: SDQRRYSLIDR [CLIP2_Y972]
phosphorylation enrichment: 0.558
--
sequence-string: DKGTLYIVEQI [PLBD1_Y375]
phosphorylation enrichment: 1.09
--
sequence-string: ILDEAYVMASM [EGFR_Y764_V769M]
phosphorylation enrichment: 1.19

Value source: the supplement of paper PMC10065799
